- assayed.system: hITK enzyme (FLAG-tagged full-length hITK) (Homo sapiens)
- Construct: strongly expressing FLAG-tagged full-length hITK in Sf9 cells; FLAG; made in house; host or cells: Sf9 insect cells (ITK); Escherichia coli (GST-SLP76 substrate)
- run.description: ITK inhibitory activity (HTRF kinase assay, biotinylated GST-SLP76 substrate)
- Format: biochemical
- condition.label: IC50 calculated from the 2 test compound concentrations sandwiching 50% ITK inhibitory rate
- Protocol: (1) Preparation of hITK Enzyme hITK enzyme was prepared by strongly expressing FLAG-tagged full-length hITK in Sf9 cells, and purifying same by anti-FLAG antibody column. (2) Preparation of biotinylated GST-SLP76 […] The Ratio (fluorescence intensity at 665 nm/fluorescence intensity at 620 nm×10000) of each test compound was calculated from the measured fluorescence intensity. […]
measurement.type: pIC50
pIC50 here is simply -log10 of the concentration when that concentration is written in mol/L.

CN(C(=O)[C@H](O)C1CCCCC1)c1ccc2cc(-c3n[nH]c4c3CCC(C)(C)C4)[nH]c2c1 [Example 77] : 8.22
COCC(=O)N(C)c1ccc2cc(-c3n[nH]c4c3CCC(C)C4)[nH]c2c1 (stereo not drawn) [Example 356] : 8.05

Continue with the next molecule.
Hello, please tell me recorded pIC50 for this one: CN(C(=O)C1CCCC1)c1ccc2cc(-c3n[nH]c4c3CCC(C)(C)C4)[nH]c2c1 [Example 33]
7.96

###

- assayed.system: hITK enzyme (FLAG-tagged full-length hITK) (Homo sapiens, UniProt Q08881)
- Construct: strongly expressing FLAG-tagged full-length hITK in Sf9 cells; FLAG; made in house; host or cells: Sf9 insect cells (ITK); Escherichia coli (GST-SLP76 substrate)
- run.description: ITK inhibitory activity (HTRF kinase assay, biotinylated GST-SLP76 substrate)
- Format: biochemical
- condition.label: IC50 calculated from the 2 test compound concentrations sandwiching 50% ITK inhibitory rate
pIC50: −log10 of the molar value.
measurement.type: pIC50

Answered examples (3):
CC(C)OCC(=O)N(C)c1ccc2cc(-c3n[nH]c4c3CCC(C)(C)C4)[nH]c2c1 : > 8.52
CN(C(=O)COc1ccccc1)c1ccc2cc(-c3n[nH]c4c3CCC(C)(C)C4)[nH]c2c1 : > 8.52
CCCOCC(=O)N(C)c1ccc2cc(-c3n[nH]c4c3CCC(C)(C)C4)[nH]c2c1 : > 8.52

Next molecule, please.
Provide pIC50 value for the following molecule: `CN(C(=O)CN1CC[C@@H](O)CC1=O)c1ccc2cc(-c3n[nH]c4c3CCC(C)(C)C4)[nH]c2c1`
> 9.00

###

- assayed.system: hITK enzyme (FLAG-tagged full-length hITK) (Homo sapiens)
- Construct: strongly expressing FLAG-tagged full-length hITK in Sf9 cells; FLAG; made in house; host or cells: Sf9 insect cells (ITK); Escherichia coli (GST-SLP76 substrate)
- run.description: ITK inhibitory activity (HTRF kinase assay, biotinylated GST-SLP76 substrate)
- Assay type: biochemical
- condition.label: IC50 calculated from the 2 test compound concentrations sandwiching 50% ITK inhibitory rate
- Experimental: (1) Preparation of hITK Enzyme hITK enzyme was prepared by strongly expressing FLAG-tagged full-length hITK in Sf9 cells, and purifying same by anti-FLAG antibody column. (2) Preparation of biotinylated GST-SLP76 […] The Ratio (fluorescence intensity at 665 nm/fluorescence intensity at 620 nm×10000) of each test compound was calculated from the measured fluorescence intensity. […]
pIC50: −log10 of the molar value.
Kind request: treat 8 as inclusive, so pIC50 at 8 or higher is label 1, anything lower is label 0.

Check out these entries, answers already filled in.
CCN(C(=O)CN1CCOC(C)C1=O)c1ccc2cc(-c3n[nH]c4c3CCC(C)(C)C4)[nH]c2c1 (centres unmarked) [Example 260] : label 1
CN(C(=O)C1CCOCC1)c1ccc2[nH]c(-c3n[nH]c4c3CCC(C)(C)C4)cc2c1 [Example 341] : label 0
CC1COCCN1CC(=O)N(C)c1ccc2cc(-c3n[nH]c4c3CCC(C)(C)C4)[nH]c2c1 (centres unmarked) [Example 145] : label 1
CCN(C(=O)CN1CCCCC1=O)c1ccc2cc(-c3n[nH]c4c3CCC(C)(C)C4)[nH]c2c1 [Example 289] : label 1
CN(C(=O)C1CCCC1)c1ccc2cc(-c3n[nH]c4c3CCC(C)(CO)C4)[nH]c2c1 (centres unmarked) [Example 349] : label 1

In plain terms: is recorded pIC50 at least 8 for CC(C)C(CO)NC(=O)c1ccc2cc(-c3n[nH]c4c3CCC(C)(C)C4)[nH]c2c1 (centres unmarked) [Example 23] ?
label 0

// inclusive: pIC50 at least 8? input: C[C@@H]1COCC(=O)N1CC(=O)N(C)c1ccc2cc(-c3n[nH]c4c3CCC(C)(C)C4)[nH]c2c1 [Example 171]
label 1

Hi, just wondering whether CN(C(=O)CN1C(=O)CC[C@@H]1CO)c1ccc2cc(-c3n[nH]c4c3CCC(C)(C)C4)[nH]c2c1 [Example 177] shows pIC50 of 8 or higher.
label 1

Textbook exercise: given the entry COCCN(C(=O)[C@H](C)N1CCOCC1)c1ccc2cc(-c3n[nH]c4c3CCC(C)(C)C4)[nH]c2c1 [Example 276] , state whether its pIC50 is greater than or equal to 8.
label 1

Quick check: does CCC(=O)N(C)c1ccc2cc(-c3n[nH]c4c3CC(OCc3ccccc3)C(C)(C)C4)[nH]c2c1 (centres unmarked) [Example 364] have pIC50 greater than or equal to 8?
label 0

Evaluate CN(C(=O)OCc1ccccc1)c1ccc2cc(-c3n[nH]c4c3CCC(C)(C)C4)[nH]c2c1 [Example 3] : pIC50 at minimum 8?
label 0

Say whether CN(C(=O)CC1CCCO1)c1ccc2cc(-c3n[nH]c4c3CCC(C)(C)C4)[nH]c2c1 (centres unmarked) [Example 71] shows pIC50 of 8 or more.
label 1

###

Reported IC50 by item:
- assayed.system: hITK enzyme (FLAG-tagged full-length hITK) (Homo sapiens)
- Construct: strongly expressing FLAG-tagged full-length hITK in Sf9 cells; FLAG; made in house; host or cells: Sf9 insect cells (ITK); Escherichia coli (GST-SLP76 substrate)
- Sequence (Q08881 1-620): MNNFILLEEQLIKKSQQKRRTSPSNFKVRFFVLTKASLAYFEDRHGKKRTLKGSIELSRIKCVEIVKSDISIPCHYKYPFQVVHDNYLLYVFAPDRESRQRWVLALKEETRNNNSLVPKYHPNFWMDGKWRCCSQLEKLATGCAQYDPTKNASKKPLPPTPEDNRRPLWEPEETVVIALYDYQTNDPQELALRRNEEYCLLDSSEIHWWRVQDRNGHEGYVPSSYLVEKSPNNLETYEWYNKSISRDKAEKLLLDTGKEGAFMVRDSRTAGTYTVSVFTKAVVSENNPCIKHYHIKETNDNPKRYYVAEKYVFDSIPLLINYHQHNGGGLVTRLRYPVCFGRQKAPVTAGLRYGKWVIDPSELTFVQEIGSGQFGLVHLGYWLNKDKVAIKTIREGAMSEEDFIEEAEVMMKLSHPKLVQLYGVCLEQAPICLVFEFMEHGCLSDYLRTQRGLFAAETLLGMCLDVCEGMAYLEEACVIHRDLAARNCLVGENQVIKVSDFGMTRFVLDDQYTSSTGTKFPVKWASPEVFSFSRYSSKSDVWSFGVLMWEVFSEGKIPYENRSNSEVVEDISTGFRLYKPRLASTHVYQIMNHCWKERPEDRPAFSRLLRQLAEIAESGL
- run.description: ITK inhibitory activity (HTRF kinase assay, biotinylated GST-SLP76 substrate)
- Assay type: biochemical
- condition.label: IC50 calculated from the 2 test compound concentrations sandwiching 50% ITK inhibitory rate
- Description: (1) Preparation of hITK Enzyme hITK enzyme was prepared by strongly expressing FLAG-tagged full-length hITK in Sf9 cells, and purifying same by anti-FLAG antibody column. (2) Preparation of biotinylated GST-SLP76 […] The Ratio (fluorescence intensity at 665 nm/fluorescence intensity at 620 nm×10000) of each test compound was calculated from the measured fluorescence intensity. […]
Write down the numeric answer in nM and omit the unit.

CC(=O)N1CCC[C@@H]1C(=O)N(C)c1ccc2cc(-c3n[nH]c4c3CCC(C)(C)C4)[nH]c2c1 : 1
CC1(C)CCc2c(-c3cc4ccc(N(CCO)C(=O)C(O)C5CCCOC5)cc4[nH]3)n[nH]c2C1 (stereo not drawn) [Example 245] : 10

Turning to the following compound.
Identify measured IC50 corresponding to `CN(C(=O)[C@@H]1CCCN1C)c1ccc2cc(-c3n[nH]c4c3CCC(C)(C)C4)[nH]c2c1`
19

###

Quick reference: log10(IC50) of the listed items.
- assayed.system: hITK enzyme (FLAG-tagged full-length hITK) (Homo sapiens, UniProt Q08881)
- Construct: strongly expressing FLAG-tagged full-length hITK in Sf9 cells; FLAG; made in house; host or cells: Sf9 insect cells (ITK); Escherichia coli (GST-SLP76 substrate)
- Sequence (Q08881 1-620): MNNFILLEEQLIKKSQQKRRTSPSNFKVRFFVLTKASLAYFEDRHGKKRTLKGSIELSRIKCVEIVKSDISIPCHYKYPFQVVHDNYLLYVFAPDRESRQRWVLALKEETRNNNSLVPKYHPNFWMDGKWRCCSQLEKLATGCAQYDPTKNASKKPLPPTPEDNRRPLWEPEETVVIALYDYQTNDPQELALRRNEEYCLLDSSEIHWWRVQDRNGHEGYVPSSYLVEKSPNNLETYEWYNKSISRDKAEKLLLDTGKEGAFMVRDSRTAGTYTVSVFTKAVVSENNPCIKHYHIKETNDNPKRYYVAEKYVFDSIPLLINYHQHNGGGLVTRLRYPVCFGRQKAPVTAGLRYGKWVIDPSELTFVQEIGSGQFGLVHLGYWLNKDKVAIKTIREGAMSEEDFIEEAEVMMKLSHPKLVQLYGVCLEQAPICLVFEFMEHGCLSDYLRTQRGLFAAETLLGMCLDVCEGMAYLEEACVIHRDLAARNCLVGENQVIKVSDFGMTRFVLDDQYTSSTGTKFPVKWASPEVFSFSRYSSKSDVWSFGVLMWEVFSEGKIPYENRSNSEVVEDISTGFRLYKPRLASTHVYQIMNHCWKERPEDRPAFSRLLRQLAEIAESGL
- run.description: ITK inhibitory activity (HTRF kinase assay, biotinylated GST-SLP76 substrate)
- Type: biochemical
- condition.label: IC50 calculated from the 2 test compound concentrations sandwiching 50% ITK inhibitory rate
Please be aware that the numbers have been log10-transformed from IC50 in nM.

Example cases with answers are listed next.
CC(C)OCC(O)C(=O)N(C)c1ccc2cc(-c3n[nH]c4c3CCC(C)(C)C4)[nH]c2c1 (stereo not shown) : 1.11
CC(C)C(=O)N(C)c1ccc2cc(-c3n[nH]c4c3CCC(C)(C)C4)[nH]c2c1 : 0.60

Write down measured log10(IC50) (hITK enzyme (FLAG-tagged full-length hITK) (Homo sapiens, UniProt Q08881)) for this compound. `CN(C(=O)CN1CCCC(C)(C)C1=O)c1ccc2cc(-c3n[nH]c4c3CCC(C)(C)C4)[nH]c2c1`
0.30

Give reported log10(IC50) for `CC1(C)CCc2c(-c3cc4cc(C(=O)NC(C)(C)C(=O)O)ccc4[nH]3)n[nH]c2C1` (hITK enzyme (FLAG-tagged full-length hITK) (Homo sapiens, UniProt Q08881))
1.62

// fetch log10(IC50); item: `CC1(C)CCc2c(-c3cc4cc(C(=O)NC(C)(C)CO)ccc4[nH]3)n[nH]c2C1` ; system: hITK enzyme (FLAG-tagged full-length hITK) (Homo sapiens, UniProt Q08881)
1.69

Please report log10(IC50) with hITK enzyme (FLAG-tagged full-length hITK) (Homo sapiens, UniProt Q08881) for item `CCC(=O)N(C)CC(=O)N(CC)c1ccc2cc(-c3n[nH]c4c3CCC(C)(C)C4)[nH]c2c1` .
0.30

Return reported log10(IC50) for target or system hITK enzyme (FLAG-tagged full-length hITK) (Homo sapiens, UniProt Q08881), item `CCC(=O)N(C)c1ccc2cc(-c3n[nH]c4c3CC[C@@H](C)C4)[nH]c2c1` .
1.20

Provide the reported log10(IC50) (system: hITK enzyme (FLAG-tagged full-length hITK) (Homo sapiens, UniProt Q08881)) for CC(C(=O)N(C)c1ccc2cc(-c3n[nH]c4c3CCC(C)(C)C4)[nH]c2c1)N1CCC[C@@H](O)C1 (stereo partly shown)
0.85

Jot down log10(IC50) (hITK enzyme (FLAG-tagged full-length hITK) (Homo sapiens, UniProt Q08881)) of CN(C(=O)C(O)COC1CCCC1)c1ccc2cc(-c3n[nH]c4c3CCC(C)(C)C4)[nH]c2c1 (stereo not shown) .
1.40
